For each record, write down the corresponding pKd.
- experimentalTarget: equine FcRn (large alpha subunit p51) in complex with equine beta-2-microglobulin (equine) (UniProt F6XZ61)
- assayDetails: SPR (Biacore), pH 6
Answers are plain numbers, as −log10 of the molar value.

Some solved cases for reference:
[[record]]
binder = "equine IgG7 M428R mutant (antibody, part only; not given: variable domains, not shown: another chain or arm of the molecule) constant: ASTTAPKVFPLASHSAATSGSTVALGCLVSSYFPEPVTVSWNSGALTSGVHTFPSVLQSSGLYSLSSMVTVPASSLKSQTYICNVAHPASSTKVDKKIVIKECGGCPTCPECLSVGPSVFIFPPKPKDVLMISRTPTVTCVVVDVGHDFPDVQFNWYVDGVETHTATTEPKQEQNNSTYRVVSILAIQHKDWLSGKEFKCKVNNQALPAPVQKTISKPTGQPREPQVYVLAPHRDELSKNKVSVTCLVKDFYPTDIDIEWKSNGQPEPETKYSTTPAQLDSDGSYFLYSKLTVETNRWQQGTTFTCAVRHEALHNHYTEKSVSKSPGK"
measurednumber = 8.92

[[record]]
binder = "equine IgG7 K311M mutant (antibody, part only; not given: variable domains, not shown: another chain or arm of the molecule) constant: ASTTAPKVFPLASHSAATSGSTVALGCLVSSYFPEPVTVSWNSGALTSGVHTFPSVLQSSGLYSLSSMVTVPASSLKSQTYICNVAHPASSTKVDKKIVIKECGGCPTCPECLSVGPSVFIFPPKPKDVLMISRTPTVTCVVVDVGHDFPDVQFNWYVDGVETHTATTEPKQEQNNSTYRVVSILAIQHMDWLSGKEFKCKVNNQALPAPVQKTISKPTGQPREPQVYVLAPHRDELSKNKVSVTCLVKDFYPTDIDIEWKSNGQPEPETKYSTTPAQLDSDGSYFLYSKLTVETNRWQQGTTFTCAVMHEALHNHYTEKSVSKSPGK"
measurednumber = 7.98


Provide reported pKd for each item, in the same order as listed.
1. equine IgG7 Y436M mutant (antibody, part only; not given: variable domains, not shown: another chain or arm of the molecule) constant: ASTTAPKVFPLASHSAATSGSTVALGCLVSSYFPEPVTVSWNSGALTSGVHTFPSVLQSSGLYSLSSMVTVPASSLKSQTYICNVAHPASSTKVDKKIVIKECGGCPTCPECLSVGPSVFIFPPKPKDVLMISRTPTVTCVVVDVGHDFPDVQFNWYVDGVETHTATTEPKQEQNNSTYRVVSILAIQHKDWLSGKEFKCKVNNQALPAPVQKTISKPTGQPREPQVYVLAPHRDELSKNKVSVTCLVKDFYPTDIDIEWKSNGQPEPETKYSTTPAQLDSDGSYFLYSKLTVETNRWQQGTTFTCAVMHEALHNHMTEKSVSKSPGK
2. equine IgG7 N434G mutant (antibody, part only; not given: variable domains, not shown: another chain or arm of the molecule; small tags and cut ends) constant: ASTTAPKVFPLASHSAATSGSTVALGCLVSSYFPEPVTVSWNSGALTSGVHTFPSVLQSSGLYSLSSMVTVPASSLKSQTYICNVAHPASSTKVDKKIVIKECGGCPTCPECLSVGPSVFIFPPKPKDVLMISRTPTVTCVVVDVGHDFPDVQFNWYVDGVETHTATTEPKQEQNNSTYRVVSILAIQHKDWLSGKEFKCKVNNQALPAPVQKTISKPTGQPREPQVYVLAPHRDELSKNKVSVTCLVKDFYPTDIDIEWKSNGQPEPETKYSTTPAQLDSDGSYFLYSKLTVETNRWQQGTTFTCAVMHEALHGHYTEKSVSKSPGK

1. 8.26
2. 5.13
